- System under test: Peroxisome proliferator-activated receptor gamma (Homo sapiens) (UniProt P37231)
- Sequence (P37231 whole entry, looked up): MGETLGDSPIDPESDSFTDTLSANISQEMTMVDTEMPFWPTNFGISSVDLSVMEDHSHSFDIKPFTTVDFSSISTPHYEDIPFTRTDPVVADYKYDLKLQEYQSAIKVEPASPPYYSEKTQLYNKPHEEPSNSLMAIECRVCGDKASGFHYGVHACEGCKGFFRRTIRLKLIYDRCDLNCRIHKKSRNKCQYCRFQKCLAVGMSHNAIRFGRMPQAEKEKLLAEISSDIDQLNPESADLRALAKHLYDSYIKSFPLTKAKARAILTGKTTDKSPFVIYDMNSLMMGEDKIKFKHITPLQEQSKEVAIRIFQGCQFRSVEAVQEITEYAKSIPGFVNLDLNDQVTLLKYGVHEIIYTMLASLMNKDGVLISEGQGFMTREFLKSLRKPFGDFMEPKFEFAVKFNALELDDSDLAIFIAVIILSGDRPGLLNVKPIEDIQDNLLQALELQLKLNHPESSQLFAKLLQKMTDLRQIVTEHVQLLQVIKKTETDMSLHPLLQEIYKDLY
- Method summary: ATG_PPARg_TRANS: Attagene TRANS-FACTORIAL HepG2 Assay for human Peroxisome Proliferator-activated Receptor-gamma (PPARg) (AID 2283007)
Results filed as inconclusive are left out. Active and inactive are the calls of the source. The calls were made as follows: active = hit-call score of the fitted dose curve at least 0.9, where 1 is the maximum; inconclusive = response in the unintended direction; inactive = score below 0.9.
Assign a class; possible classes are TRUE (active), FALSE (inactive)

[Q] Called result for `Nc1ccc(N=Nc2ccccc2)cc1`
[A] TRUE

[Q] Called result for `N#CC(Br)Br`
[A] FALSE

[Q] Called result for `CN(C)[C@@H]1C(=O)C(C(N)=O)=C(O)[C@@]2(O)C(=O)C3=C(O)c4c(O)cccc4[C@@](C)(O)[C@H]3C[C@@H]12`
[A] FALSE

[Q] Called result for `Clc1ccc(Cl)c(Cl)c1`
[A] FALSE

[Q] Called result for `CNC(=O)Oc1cccc2c1OC(C)(C)C2`
[A] FALSE

[Q] Called result for `CC(C)COC(=O)c1ccccc1C(=O)OCC(C)C`
[A] TRUE

[Q] Called result for `Nc1ccc(Cl)cc1N`
[A] FALSE

[Q] Called result for `Cn1cc(-c2ccccc2)c(=O)c(-c2cccc(C(F)(F)F)c2)c1`
[A] FALSE

Attribution: PubChem BioAssay (EPA / NIEHS)
